What Ki was measured for each of the following?
target: human CB2 receptor (Homo sapiens, UniProt P34972); construct: expressed in transfected cells; b94 says HEK for CB2; assay: CB2 receptor binding, [3H]CP55,940 displacement in membranes of transfected cells; details: Tables 2b, 3b, 4a; mean±SEM; read-out: CB2 Ki
Sequence (P34972 whole entry): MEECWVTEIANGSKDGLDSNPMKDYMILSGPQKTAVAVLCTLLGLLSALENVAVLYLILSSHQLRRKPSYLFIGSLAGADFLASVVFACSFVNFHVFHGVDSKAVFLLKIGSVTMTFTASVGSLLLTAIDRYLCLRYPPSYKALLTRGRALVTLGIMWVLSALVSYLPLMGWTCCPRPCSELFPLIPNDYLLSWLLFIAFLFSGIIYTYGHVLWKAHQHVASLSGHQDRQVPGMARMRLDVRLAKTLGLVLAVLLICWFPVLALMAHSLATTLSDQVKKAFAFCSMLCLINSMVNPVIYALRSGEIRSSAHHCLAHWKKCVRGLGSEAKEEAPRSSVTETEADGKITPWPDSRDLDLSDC
Provide the measurement as a number trailed by its unit.

Examples with their reported Ki follow.
CC1=CC[C@@H]2[C@@H](C1)c1c(O)cc(C(C)(C)CCCCn3ccnc3C)cc1OC2(C)C | 1.22 nM
CC1=CC[C@@H]2[C@@H](C1)c1c(O)cc(C(C)(C)CCCCn3cccn3)cc1OC2(C)C | 1.52 nM

Could you now look at the following compound, please?
Identify the measured Ki of CC1=CC[C@@H]2C(C1)c1c(OC(=O)CCCN(C(C)C)C(C)C)cc(C(C)(C)CCCCC(=O)N3CCOCC3)cc1OC2(C)C (stereo partly drawn) for human CB2 receptor (Homo sapiens, UniProt P34972).
2.77 nM
